# Ki listing for each entry below
- assayedSystem: D2 receptor (Homo sapiens (Human), UniProt P14416)
- Sequence (P14416 whole entry): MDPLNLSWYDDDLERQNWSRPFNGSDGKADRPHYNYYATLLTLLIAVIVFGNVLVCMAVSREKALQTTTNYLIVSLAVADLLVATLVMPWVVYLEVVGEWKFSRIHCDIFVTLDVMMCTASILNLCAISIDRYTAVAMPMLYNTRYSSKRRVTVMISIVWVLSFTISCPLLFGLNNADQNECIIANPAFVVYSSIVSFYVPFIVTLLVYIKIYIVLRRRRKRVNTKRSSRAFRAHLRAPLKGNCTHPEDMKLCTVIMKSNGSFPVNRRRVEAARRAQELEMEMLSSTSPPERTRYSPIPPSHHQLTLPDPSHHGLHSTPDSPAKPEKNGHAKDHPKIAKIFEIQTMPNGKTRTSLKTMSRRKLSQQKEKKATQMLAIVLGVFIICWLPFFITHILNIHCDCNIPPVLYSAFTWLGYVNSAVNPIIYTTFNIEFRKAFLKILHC
- experimentSummary: Radioligand binding assay ([3H]-spiperone) on membranes of HEK293 EBNA cells expressing human D2 receptor
- experimentalConditions: human receptor in HEK293 EBNA cells; 0.7 nM [3H]-spiperone
State the value, then name its unit.

Please review the following examples before continuing.
compound	reportedEndpoint	result
O=C(N[C@H]1CC[C@H](CCN2CCC(c3cccc4c3OCO4)CC2)CC1)C1(O)CC1 [Example 49]	Ki	245 nM
O=C(N[C@H]1CC[C@H](CCN2CCC(c3cccc4c3OCO4)CC2)CC1)C1COc2ccccc2C1 (stereo partly shown) [Example 60]	Ki	1050 nM

The value of Ki measured for the compound O=C(CC1CCCO1)N[C@H]1CC[C@H](CCN2CCC(c3cccc4c3OCO4)CC2)CC1 (stereo partly shown) [Example 6] turned out to be 389 nM

The value of Ki measured for the compound O=C(Cc1ccc2c(c1)OCO2)N[C@H]1CC[C@H](CCN2CCC(c3cccc4c3OCO4)CC2)CC1 [Example 59] turned out to be 325 nM

====

- assayedSystem: UniProt P28223
- experimentSummary: Radioligand binding assay ([3H]-ketanserin) on membranes of HEK293 EBNA cells expressing human 5-HT2A receptor
- experimentalConditions: read-out: 5HT2A Ki; human receptor in HEK293 EBNA cells; 1.1 nM [3H]-ketanserin
Param label: returns fulfilled when Ki < 20 nM, returns not fulfilled otherwise, including exact equality.

Check out these entries, answers already filled in.
compound	assayedSystem	classAssignment
CCC(=O)N[C@H]1CC[C@H](CCN2CCC(c3cccc4c3OCO4)CC2)CC1	UniProt P28223	fulfilled
CCOCCC(=O)N[C@H]1CC[C@H](CCN2CCC(c3cccc4c3OCO4)CC2)CC1	UniProt P28223	not fulfilled
O=C(N[C@H]1CC[C@H](CCN2CCC(c3cccc4c3OCO4)CC2)CC1)C1COc2ccccc2C1 (stereo partly shown)	UniProt P28223	not fulfilled
CN(C)S(=O)(=O)N[C@H]1CC[C@H](CCN2CCC(c3cccc4c3OCO4)CC2)CC1	UniProt P28223	not fulfilled

Hello, is Ki of the following compound strictly smaller than 20 nM? CC(C)CC(=O)N[C@H]1CC[C@H](CCN2CCC(c3cccc4c3OCO4)CC2)CC1
not fulfilled

====

- assayedSystem: D3 receptor (Homo sapiens (Human))
- Sequence (P35462 whole entry): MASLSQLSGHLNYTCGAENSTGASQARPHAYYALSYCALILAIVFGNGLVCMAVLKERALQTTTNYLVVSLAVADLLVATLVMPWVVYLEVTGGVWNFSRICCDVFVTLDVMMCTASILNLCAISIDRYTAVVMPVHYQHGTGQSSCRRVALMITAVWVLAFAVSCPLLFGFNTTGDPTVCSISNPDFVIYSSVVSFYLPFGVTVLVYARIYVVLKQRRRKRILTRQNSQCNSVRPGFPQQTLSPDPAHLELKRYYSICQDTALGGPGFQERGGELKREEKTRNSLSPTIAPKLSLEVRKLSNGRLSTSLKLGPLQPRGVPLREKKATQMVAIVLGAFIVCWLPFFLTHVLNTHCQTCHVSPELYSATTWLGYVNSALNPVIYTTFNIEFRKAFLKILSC
- experimentSummary: Radioligand binding assay ([3H]-spiperone) on membranes of HEK293 EBNA cells expressing human D3 receptor
- experimentalConditions: read-out: D3 Ki; human receptor in HEK293 EBNA cells; 0.5 nM [3H]-spiperone
reportedEndpoint: Ki
State the value, then name its unit.

Please review the following examples before continuing.
compound	result
O=C(CF)N[C@H]1CC[C@H](CCN2CCC(c3cccc4c3OCO4)CC2)CC1	12.4 nM
O=C(CC1CCCO1)N[C@H]1CC[C@H](CCN2CCC(c3cccc4c3OCO4)CC2)CC1 (some centres unmarked)	9.06 nM
O=C(N[C@H]1CC[C@H](CCN2CCC(c3cccc4c3OCO4)CC2)CC1)C1(O)CC1	6.09 nM
O=C(CC1CCCCO1)N[C@H]1CC[C@H](CCN2CCC(c3cccc4c3OCO4)CC2)CC1 (some centres unmarked)	9.35 nM

The value of Ki measured for the compound O=C(N[C@H]1CC[C@H](CCN2CCC(c3cccc4c3OCO4)CC2)CC1)C1CCC1 turned out to be 8 nM

Cited source: patent US8598357B2
